tested on: Aspergillus niger ATCC 9642; type: cell-based; conditions: ATCC 9642, pH 7.4
Non-standard residues stand in square brackets, D forms with d. Residues, ends and D or L forms follow the SMILES beside them. *: point of attachment. Palmitoyl = CCCCCCCCCCCCCCCC(=O)*
The entries below are paired with their reported Minimal Inhibitory Concentration, Aspergillus niger (ATCC 9642).

Q. Please give measured Minimal Inhibitory Concentration, Aspergillus niger (ATCC 9642) of the following entry: CCCCCCCCCCCCCCCC(=O)N[C@@H](CCCCN)C(=O)N[C@H](C(=O)N[C@@H](C(=O)N[C@@H](C(=O)N[C@@H](CCCCN)C(=O)N[C@H](C(=O)N[C@H](C(=O)N[C@@H](C(=O)N[C@@H](CCCCN)C(=O)N[C@@H](C(=O)N[C@H](C(=O)N[C@@H](CCCCN)C(N)=O)C(C)C)C(C)C)C(C)C)C(C)C)C(C)C)C(C)C)C(C)C)C(C)C [lipopeptide 7] (Palmitoyl-KV[dV][dV]KVV[dV]K[dV]VK-NH2)
A. >100 µM

Q. Answer with the recorded Minimal Inhibitory Concentration, Aspergillus niger (ATCC 9642) of CC(C)[C@H](NC(=O)[C@H](CCCCN)NC(=O)[C@H](NC(=O)[C@H](NC(=O)[C@@H](NC(=O)[C@@H](N)CCCCN)C(C)C)C(C)C)C(C)C)C(=O)N[C@H](C(=O)N[C@@H](C(=O)N[C@@H](CCCCN)C(=O)N[C@@H](C(=O)N[C@H](C(=O)N[C@@H](CCCCN)C(N)=O)C(C)C)C(C)C)C(C)C)C(C)C [DK4V8, reference compound] (H-KV[dV][dV]KVV[dV]K[dV]VK-NH2; N-terminus assumed) only.
A. >100 µM

Q. Identify Minimal Inhibitory Concentration, Aspergillus niger (ATCC 9642) associated with the compound NCCCC[C@@H](N)C(=O)NCC(=O)NCC(=O)NCC(=O)N[C@H](CCCCN)C(=O)NCC(=O)NCC(=O)NCC(=O)N[C@H](CCCCN)C(=O)NCC(=O)NCC(=O)N[C@H](CCCCN)C(N)=O [DK4G8, reference compound] (H-[dK]GGG[dK]GGG[dK]GG[dK]-NH2; N-terminus assumed)
A. >100 µM

Q. Return Minimal Inhibitory Concentration, Aspergillus niger (ATCC 9642) (reported value) for this compound: CCCCCCCCCCCCCCCC(=O)N[C@H](CCCCN)C(=O)NCC(=O)NCC(=O)NCC(=O)N[C@H](CCCCN)C(=O)NCC(=O)NCC(=O)NCC(=O)N[C@H](CCCCN)C(=O)NCC(=O)NCC(=O)N[C@H](CCCCN)C(N)=O [lipopeptide 2] (Palmitoyl-[dK]GGG[dK]GGG[dK]GG[dK]-NH2)
A. 6.25 µM

###

tested on: E. coli ATCC 35218; format: cell-based; conditions: ATCC 35218, pH 7.4
Non-standard residues stand in square brackets, D forms with d. Residues, ends and D or L forms follow the SMILES beside them. *: point of attachment. Palmitoyl = CCCCCCCCCCCCCCCC(=O)*; Myristoyl = CCCCCCCCCCCCCC(=O)*; Lauroyl = CCCCCCCCCCCC(=O)*; Decanoyl = CCCCCCCCCC(=O)*
Metric name: Minimal Inhibitory Concentration, E. coli ATCC 35218 (µM)
Field: numeric (µM). Do not append units.

Example compounds with recorded Minimal Inhibitory Concentration, E. coli ATCC 35218:
Compound: CCCCCCCCCCCC(=O)N[C@H](CC(C)C)C(=O)N[C@@H](CCCCN)C(=O)N[C@@H](CCCCN)C(=O)N[C@H](CC(C)C)C(=O)N[C@H](CC(C)C)C(=O)N[C@@H](CCCCN)C(=O)N[C@@H](CCCCN)C(=O)N[C@H](CC(C)C)C(=O)N[C@H](CC(C)C)C(=O)N[C@@H](CCCCN)C(=O)N[C@@H](CCCCN)C(=O)N[C@H](CC(C)C)C(N)=O [lipopeptide 22] (Lauroyl-[dL]KK[dL][dL]KK[dL][dL]KK[dL]-NH2)
Unit annotation: µM
Quantitative result: 25
--
Compound: CCCCCCCCCCCCCC(=O)N[C@H](CC(C)C)C(=O)N[C@@H](CCCCN)C(=O)N[C@@H](CCCCN)C(=O)N[C@H](CC(C)C)C(=O)N[C@H](CC(C)C)C(=O)N[C@@H](CCCCN)C(=O)N[C@@H](CCCCN)C(=O)N[C@H](CC(C)C)C(=O)N[C@H](CC(C)C)C(=O)N[C@@H](CCCCN)C(=O)N[C@@H](CCCCN)C(=O)N[C@H](CC(C)C)C(N)=O [lipopeptide 23] (Myristoyl-[dL]KK[dL][dL]KK[dL][dL]KK[dL]-NH2)
Unit annotation: µM
Quantitative result: 50
--
Compound: CCCCCCCCCC(=O)N[C@H](CC(C)C)C(=O)N[C@@H](CCCCN)C(=O)N[C@@H](CCCCN)C(=O)N[C@H](CC(C)C)C(=O)N[C@H](CC(C)C)C(=O)N[C@@H](CCCCN)C(=O)N[C@@H](CCCCN)C(=O)N[C@H](CC(C)C)C(=O)N[C@H](CC(C)C)C(=O)N[C@@H](CCCCN)C(=O)N[C@@H](CCCCN)C(=O)N[C@H](CC(C)C)C(N)=O [lipopeptide 21] (Decanoyl-[dL]KK[dL][dL]KK[dL][dL]KK[dL]-NH2)
Unit annotation: µM
Quantitative result: 12.5
--
Compound: CCCCCCCCCCCCCCCC(=O)N[C@H](CC(C)C)C(=O)N[C@@H](CCCCN)C(=O)N[C@@H](CCCCN)C(=O)N[C@H](CC(C)C)C(=O)N[C@H](CC(C)C)C(=O)N[C@@H](CCCCN)C(=O)N[C@@H](CCCCN)C(=O)N[C@H](CC(C)C)C(=O)N[C@H](CC(C)C)C(=O)N[C@@H](CCCCN)C(=O)N[C@@H](CCCCN)C(=O)N[C@H](CC(C)C)C(N)=O [lipopeptide 24] (Palmitoyl-[dL]KK[dL][dL]KK[dL][dL]KK[dL]-NH2)
Unit annotation: µM
Quantitative result: 50

Consider the record given below.
Q. Supply reported Minimal Inhibitory Concentration, E. coli ATCC 35218 belonging to this compound: CC(C)C[C@@H](N)C(=O)N[C@@H](CCCCN)C(=O)N[C@@H](CCCCN)C(=O)N[C@H](CC(C)C)C(=O)N[C@H](CC(C)C)C(=O)N[C@@H](CCCCN)C(=O)N[C@@H](CCCCN)C(=O)N[C@H](CC(C)C)C(=O)N[C@H](CC(C)C)C(=O)N[C@@H](CCCCN)C(=O)N[C@@H](CCCCN)C(=O)N[C@H](CC(C)C)C(N)=O [[D]-L6K6, LKKLLKKLLKKL, reference compound] (H-[dL]KK[dL][dL]KK[dL][dL]KK[dL]-NH2; N-terminus assumed)
A. 50

###

test system: Candida albicans ATCC 10231; experiment: microbe, parasite or virus in culture; format: cell-based; conditions: ATCC 10231, pH 5.5; read-out: Minimal inhibitory concentrations, C. Albicans With serum
Non-standard residues stand in square brackets, D forms with d. Residues, ends and D or L forms follow the SMILES beside them. *: point of attachment. Lauroyl = CCCCCCCCCCCC(=O)*
Metric name: MIC

The following compounds have reported results that may help.
Compound: CCCCCCCCCCCC(=O)N[C@H](CC(C)C)C(=O)N[C@@H](CCCCN)C(=O)N[C@@H](CCCCN)C(=O)N[C@H](CC(C)C)C(=O)N[C@H](CC(C)C)C(=O)N[C@@H](CCCCN)C(=O)N[C@@H](CCCCN)C(=O)N[C@H](CC(C)C)C(=O)N[C@H](CC(C)C)C(=O)N[C@@H](CCCCN)C(=O)N[C@@H](CCCCN)C(=O)N[C@H](CC(C)C)C(N)=O [lipopeptide 22] (Lauroyl-[dL]KK[dL][dL]KK[dL][dL]KK[dL]-NH2)
Metric name: MIC
Result: >100 µM

Compound: CCCCCCCCCCCC(=O)N[C@H](CC(C)C)C(=O)N[C@@H](CCCNC(=N)N)C(=O)N[C@@H](Cc1c[nH]cn1)C(=O)N[C@H](CC(C)C)C(=O)N[C@H](CC(C)C)C(=O)N[C@@H](CCCNC(=N)N)C(=O)N[C@@H](Cc1c[nH]cn1)C(=O)N[C@H](CC(C)C)C(=O)N[C@H](CC(C)C)C(=O)N[C@@H](CCCNC(=N)N)C(=O)N[C@@H](Cc1c[nH]cn1)C(=O)N[C@H](CC(C)C)C(N)=O [lipopeptide 27] (Lauroyl-[dL]RH[dL][dL]RH[dL][dL]RH[dL]-NH2)
Metric name: MIC
Result: >100 µM

Q. Identify MIC associated with the compound CCCCCCCCCCCC(=O)N[C@H](CC(C)C)C(=O)N[C@@H](CCCCN)C(=O)N[C@@H](Cc1c[nH]cn1)C(=O)N[C@H](CC(C)C)C(=O)N[C@H](CC(C)C)C(=O)N[C@@H](CCCCN)C(=O)N[C@@H](Cc1c[nH]cn1)C(=O)N[C@H](CC(C)C)C(=O)N[C@H](CC(C)C)C(=O)N[C@@H](CCCCN)C(=O)N[C@@H](Cc1c[nH]cn1)C(=O)N[C@H](CC(C)C)C(N)=O [lipopeptide 28] (Lauroyl-[dL]KH[dL][dL]KH[dL][dL]KH[dL]-NH2)
A. >100 µM
